# Tested on: UACC-257 melanoma
# TEST_NAME: NCI tumour cell line growth inhibition, 48 h
TGI by entry:

query: # input compound: CC1=C(c2ccccc2)C(O)(c2ccccc2)C(C)C1=O (stereo unspecified) ; wanted: its TGI
result: > 100 µM

query: # input compound: CC1CC/C(=C\c2ccc(F)cc2)C(=O)/C1=C/c1ccc(F)cc1 (stereo unspecified) ; wanted: its TGI
result: 29.9 µM

query: # input compound: `COc1ccc2c(c1)[nH]c(=O)c1c3cccc(F)c3cn21` ; wanted: its TGI
result: > 100 µM

query: # input compound: COC(=O)C1Cc2c(n(C)c3ccccc23)C(CCC(=O)O)N1Cc1ccccc1 (stereo unspecified) ; wanted: its TGI
result: > 100 µM

query: # input compound: `COc1cc(/C=N/Nc2ncnc3c2cnn3-c2ccccc2)ccc1O` ; wanted: its TGI
result: > 25 µM

query: # input compound: `N/C(=N\N=C\c1ccc(C(F)(F)F)cc1)NO` ; wanted: its TGI
result: > 100 µM
